B1: Pistol ribozyme (parent)
chain: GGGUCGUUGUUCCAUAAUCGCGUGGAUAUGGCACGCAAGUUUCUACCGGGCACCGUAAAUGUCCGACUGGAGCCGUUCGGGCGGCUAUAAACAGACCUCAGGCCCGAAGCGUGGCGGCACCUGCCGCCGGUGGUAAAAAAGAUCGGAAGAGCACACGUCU

Variants of: B1
Test: aptazyme ON/OFF ratio, guanine; higher = stronger switching; co-transcriptional cleavage with and without guanine
attribute_measured: aptazyme ON/OFF ratio
Just the number, please, no unit attached.

Reference set (8 entries):
mutation_notation	aptazyme ON/OFF ratio
U7A G9U U10A U11C C12G C13A	1.09
U7C U8G G9U U10A C13A	1.14
U8A G9A U10C C12G	1.18
U7C U8C G9A U10A U11A C12U C13G	1.13
U7A U8G G9C U10C C12G	1.4
U7A U8C G9C U10A C12G C13U	1.17
U8A G9U U10G U11G C12A C13U	1.26
U7G U8G G9C U10C U11G C13A	1.38

Prompt line: Reported aptazyme ON/OFF ratio, variant U7A U8A G9C C12U C13G : ____
Response line: 1.23

Prompt line: I'd like to know its aptazyme ON/OFF ratio. The variant in question is U7C G9A U11C C13G
Response line: 1.04

Prompt line: I am curious: what aptazyme ON/OFF ratio value has been reported for U7C U8G G9U U10C U11G C12U C13G ?
Response line: 1.22

Prompt line: Which value of aptazyme ON/OFF ratio has been reported for U7C G9A U10A U11A C12U C13U in the records?
Response line: 1.19

Prompt line: What value of aptazyme ON/OFF ratio has been reported for the following variant? U8G G9C U10C C12A
Response line: 1.05

Prompt line: Sample U8C G9U U11A C12G C13A — what was its aptazyme ON/OFF ratio?
Response line: 1.13

Prompt line: What value of aptazyme ON/OFF ratio has been recorded for this entry: U8C U11C C12G
Response line: 1.34

Prompt line: Need aptazyme ON/OFF ratio of U7A U8G C12A C13A , thanks.
Response line: 1.27

Prompt line: Fill in: aptazyme ON/OFF ratio of U7C U8C G9U U10C U11A C12A is ___
Response line: 1.26

Prompt line: Entry U8G G9U U10G U11G C12A C13A : reported aptazyme ON/OFF ratio = ?
Response line: 1.07

Prompt line: # input variant: U8G U10G U11A C12U C13G ; wanted: its aptazyme ON/OFF ratio
Response line: 1.22

Prompt line: Entry U7G U8A G9A U10C U11C : reported aptazyme ON/OFF ratio = ?
Response line: 1.06

Prompt line: Suppose we examine the variant U8G G9C U10C U11G C12U C13G ; what aptazyme ON/OFF ratio value has been reported?
Response line: 1.1

Prompt line: Which aptazyme ON/OFF ratio is reported for this variant? U7G G9A U10C U11A C12U
Response line: 1.18

Prompt line: Entry U7G U8C G9C U10C C13U : reported aptazyme ON/OFF ratio = ?
Response line: 1.15

Prompt line: Can you share its aptazyme ON/OFF ratio? I mean this variant: U7C U8A U10A U11A C12G C13A
Response line: 1.23

Prompt line: Returns the measured aptazyme ON/OFF ratio for the input variant. Input: U7G U8A U10A U11G C13G
Response line: 1.36

Prompt line: Can you look up the measured aptazyme ON/OFF ratio of U7G U8G G9A U10G U11G C12U C13A for me?
Response line: 1.71

Prompt line: Given the entry U8C G9U U10C U11A C13A , report its measured aptazyme ON/OFF ratio.
Response line: 1.13

Prompt line: Any idea what its aptazyme ON/OFF ratio is? The variant is U7A U8C U10A U11A C12A C13U
Response line: 1.17

Prompt line: Could you tell me which aptazyme ON/OFF ratio is on file for U8C G9A U11A C13G ?
Response line: 1.04
